Taken from patent US20050090529A1.

# experiment description: Measurement of kinetic solubility
# reported conditions: 100 mM sodium phosphate buffer, pH 6.5, aqueous buffer, kinetic from dmso stock
# Description: Kinetic solubility was determined with a […] stock solution from the compound(s) of interest. […] Samples and standards were then centrifuged and an aliquot was removed for HPLC analysis. Samples and standards were analyzed by HPLC and a final concentration for the sample was determined based on a one-point calibration curve from the corresponding standard. Results were reported as μg's/mL.
observed property: solubility

// recorded solubility for c1c[nH]c(-c2n[nH]c3ccc(-c4cncc5[nH]ccc45)cc23)n1 [Example 94] : 20 to 120 µg/mL

Form field solubility, entry CCNCc1cncc(-c2ccc3[nH]nc(-c4nc(C)c(C)[nH]4)c3c2)c1C [Example 24] : > 120 µg/mL

The value of solubility measured for the compound CCNCc1cncc(-c2ccc3[nH]nc(-c4nc(-c5ccccc5)c(C(=O)N5CCC[C@H]5COC)[nH]4)c3c2)c1C [Example 14] turned out to be > 120 µg/mL

Entry under test: CCNCc1cncc(-c2ccc3[nH]nc(-c4nc(-c5ccccc5)c(C(=O)N5CCOCC5)[nH]4)c3c2)c1C [Example 10] . Its solubility was 20 to 120 µg/mL

solubility recorded for this compound, CCNCc1cncc(-c2ccc3[nH]nc(-c4nc(-c5ccccc5)c[nH]4)c3c2)c1C [Example 30] , is 20 to 120 µg/mL

Entry under test: CCNCc1cncc(-c2ccc3[nH]nc(-c4ncc(C(=O)N5CCC(Cc6ncccn6)CC5)[nH]4)c3c2)c1C [Example 85] . Its solubility was > 120 µg/mL

Notebook: CCNCc1cncc(-c2ccc3[nH]nc(-c4ncc(C(=O)N[C@H]5CCCCNC5=O)[nH]4)c3c2)c1C [Example 75] , solubility read as > 120 µg/mL

Sample CCNCc1cncc(-c2ccc3[nH]nc(-c4nc(C(=O)NC5CC6CCC(C5)N6)c[nH]4)c3c2)c1C (stereo not drawn) [Example 77] ; solubility observed: > 120 µg/mL

Query CCCc1nc(-c2n[nH]c3ccc(-c4cncc(CNCC)c4C)cc23)[nH]c1C [Example 19] yields solubility of 20 to 120 µg/mL

Value of solubility reported for the compound CCNCc1cncc(-c2ccc3[nH]nc(-c4nc(-c5ccc(Cl)cc5)c(C)[nH]4)c3c2)c1C [Example 25] is 20 to 120 µg/mL

get_value(item= CCNCc1cncc(-c2ccc3[nH]nc(-c4nc(C(=O)NC5CCNCC5)c[nH]4)c3c2)c1C [Example 76] , readout=solubility) returns > 120 µg/mL

Lookup result for CCNCc1cncc(-c2ccc3[nH]nc(-c4nc(-c5ccccc5)c(C(=O)N5CCC[C@@H]5COC)[nH]4)c3c2)c1C [Example 15] ; measured solubility: > 120 µg/mL

Field solubility (entry CCNCc1cncc(-c2ccc3[nH]nc(-c4nc(-c5ccc(C(F)(F)F)cc5)c(C)[nH]4)c3c2)c1C [Example 28] ) reads 20 to 120 µg/mL

So, CCNCc1cncc(-c2ccc3[nH]nc(-c4nc(-c5ccccc5)c(C(=O)NCCOC)[nH]4)c3c2)c1C [Example 3] ? Its solubility was 20 to 120 µg/mL

Value of measured solubility for the entry CCNCc1cncc(-c2ccc3[nH]nc(-c4nc5c([nH]4)CCCC5)c3c2)c1CC [Example 46] : > 120 µg/mL

---

# System: Cyclin-dependent kinase
# experiment description: Cyclin-dependent kinase inhibition, % inhibition at 10 nM (library Examples 99-270)
# Type: biochemical
# reported conditions: 10 nM compound
observed property: % Inhib @ 10 nM (%)
Give just the number in %; leave the unit off.

Record excerpt, results attached:
molecule | tgt | value units | % Inhib @ 10 nM
CCNCc1cncc(-c2ccc3[nH]nc(-c4ncc(C(=O)N5CCC(n6c(=O)[nH]c7ccccc76)CC5)[nH]4)c3c2)c1C | Cyclin-dependent kinase | % | 59
CCNCc1cncc(-c2ccc3[nH]nc(-c4ncc(C(=O)NC(C)CO)[nH]4)c3c2)c1C (stereo not shown) | Cyclin-dependent kinase | % | 65
CCNCc1cncc(-c2ccc3[nH]nc(-c4ncc(C(=O)NC5CCCCC5)[nH]4)c3c2)c1C | Cyclin-dependent kinase | % | 78
CCNCc1cncc(-c2ccc3[nH]nc(-c4ncc(C(=O)NCc5ccc(C(C)(C)O)cc5)[nH]4)c3c2)c1C | Cyclin-dependent kinase | % | 63
CCNCc1cncc(-c2ccc3[nH]nc(-c4ncc(C(=O)NCC(=O)OCc5ccccc5)[nH]4)c3c2)c1C | Cyclin-dependent kinase | % | 63
CCNCc1cncc(-c2ccc3[nH]nc(-c4ncc(C(=O)N5CCC(Cc6ccccc6)C5)[nH]4)c3c2)c1C (stereo not shown) | Cyclin-dependent kinase | % | 75

Next:
molecule CCNCc1cncc(-c2ccc3[nH]nc(-c4ncc(C(=O)N5CCN(CC6CCCO6)CC5)[nH]4)c3c2)c1C (stereo not shown) , % Inhib @ 10 nM observed: 33

---

Here the recorded % Inhib @ 10 nM is given for each entry.
# System: Cyclin-dependent kinase
# experiment description: Cyclin-dependent kinase inhibition, % inhibition at 10 nM (library Examples 99-270)
# Format: biochemical
# reported conditions: 10 nM compound
Number only, in %; omit the unit.

smiles representation | value units | % Inhib @ 10 nM
CCNCc1cncc(-c2ccc3[nH]nc(-c4ncc(C(=O)NCC(N)=O)[nH]4)c3c2)c1C | % | 69
CCNCc1cncc(-c2ccc3[nH]nc(-c4ncc(C(=O)N5CCN(Cc6ccccc6)CC5)[nH]4)c3c2)c1C | % | 72
CCNCc1cncc(-c2ccc3[nH]nc(-c4ncc(C(=O)N5CCN(CCCN6CCOCC6)CC5)[nH]4)c3c2)c1C | % | 22

The compound listed as CCNCc1cncc(-c2ccc3[nH]nc(-c4ncc(C(=O)N5CCC(Oc6ccccc6)CC5)[nH]4)c3c2)c1C has a reported % Inhib @ 10 nM of 71

Reported % Inhib @ 10 nM for CCNCc1cncc(-c2ccc3[nH]nc(-c4ncc(C(=O)N(C)C)[nH]4)c3c2)c1C was 76

So, CCNCc1cncc(-c2ccc3[nH]nc(-c4ncc(C(=O)N(C)CCN(C)C)[nH]4)c3c2)c1C ? Its % Inhib @ 10 nM was 25

Entry CCNCc1cncc(-c2ccc3[nH]nc(-c4ncc(C(=O)NC/C=C(\C)CCC=C(C)C)[nH]4)c3c2)c1C — recorded % Inhib @ 10 nM = 28

---

# System: Cyclin-dependent kinase
# experiment description: Cyclin-dependent kinase inhibition, % inhibition at 10 nM (library Examples 99-270)
# Assay type: biochemical
# reported conditions: 10 nM compound
This section presents compounds with their documented % Inhib @ 10 nM values.
Kindly provide the numeric value in % only, without the unit symbol.

Example entries and their recorded answers appear below.
compound | % Inhib @ 10 nM, %
CCNCc1cncc(-c2ccc3[nH]nc(-c4ncc(C(=O)N5CCC(c6c[nH]c7ccccc67)CC5)[nH]4)c3c2)c1C [Example 201] | 67
CCNCc1cncc(-c2ccc3[nH]nc(-c4ncc(C(=O)NCCCN5CCCC5=O)[nH]4)c3c2)c1C [Example 130] | 28
CCNCc1cncc(-c2ccc3[nH]nc(-c4ncc(C(=O)N(C)Cc5cnn(-c6ccccc6)c5)[nH]4)c3c2)c1C [Example 225] | 70

Turning now to a further compound:
Sample CCNCc1cncc(-c2ccc3[nH]nc(-c4ncc(C(=O)NCCC5=CCCCC5)[nH]4)c3c2)c1C [Example 131] ; % Inhib @ 10 nM observed: 57

---

# System: Cyclin-dependent kinase
# experiment description: Cyclin-dependent kinase inhibition, % inhibition at 10 nM (library Examples 99-270)
# Format: biochemical
# reported conditions: 10 nM compound
observed property: % Inhib @ 10 nM

smiles representation | % Inhib @ 10 nM
CCNCc1cncc(-c2ccc3[nH]nc(-c4ncc(C(=O)N5CCC(n6c(C)nc7cnccc76)CC5)[nH]4)c3c2)c1C | 26%
CCNCc1cncc(-c2ccc3[nH]nc(-c4ncc(C(=O)N5C[C@@H]6[C@@H](N)[C@@H]6C5)[nH]4)c3c2)c1C | 52%
CCNCc1cncc(-c2ccc3[nH]nc(-c4ncc(C(=O)N(CCC#N)Cc5cccnc5)[nH]4)c3c2)c1C | 71%

Value of % Inhib @ 10 nM reported for the molecule CCNCc1cncc(-c2ccc3[nH]nc(-c4ncc(C(=O)NCc5ccc(OC)c6ccccc56)[nH]4)c3c2)c1C is 71%

Measured % Inhib @ 10 nM of CCNCc1cncc(-c2ccc3[nH]nc(-c4ncc(C(=O)NCc5ccc(-c6csnn6)cc5)[nH]4)c3c2)c1C : 72%

Kindly note the recorded % Inhib @ 10 nM for CCNCc1cncc(-c2ccc3[nH]nc(-c4ncc(C(=O)N5CCN(CCOC)CC5)[nH]4)c3c2)c1C , which is 37%

// CCNCc1cncc(-c2ccc3[nH]nc(-c4ncc(C(=O)N(CCO)Cc5ccccc5)[nH]4)c3c2)c1C : % Inhib @ 10 nM value = 56%

---

% Inhib @ 10 nM values, listed per item
# Test system: Cyclin-dependent kinase
# experiment description: Cyclin-dependent kinase inhibition, % inhibition at 10 nM (library Examples 99-270)
# Type: biochemical
# reported conditions: 10 nM compound

Look over these answered cases.
smiles representation | % Inhib @ 10 nM
CCNCc1cncc(-c2ccc3[nH]nc(-c4ncc(C(=O)N5CCN(CCC#N)CC5)[nH]4)c3c2)c1C | 40%
CCNCc1cncc(-c2ccc3[nH]nc(-c4ncc(C(=O)N(CCO)C5CCCCC5)[nH]4)c3c2)c1C | 30%
CCNCc1cncc(-c2ccc3[nH]nc(-c4ncc(C(=O)NCCc5c[nH]cn5)[nH]4)c3c2)c1C | 48%
CCNCc1cncc(-c2ccc3[nH]nc(-c4ncc(C(=O)N[C@@H]5CCCC[C@H]5OCc5ccccc5)[nH]4)c3c2)c1C | 31%
CCNCc1cncc(-c2ccc3[nH]nc(-c4ncc(C(=O)NCCSCc5ccc(CN(C)C)o5)[nH]4)c3c2)c1C | 37%

Record summary for CCNCc1cncc(-c2ccc3[nH]nc(-c4ncc(C(=O)N[C@H](CO)Cc5ccc(O)cc5)[nH]4)c3c2)c1C : reported % Inhib @ 10 nM = 45%

Entry CCNCc1cncc(-c2ccc3[nH]nc(-c4ncc(C(=O)N[C@H](Cc5ccccc5)C(N)=O)[nH]4)c3c2)c1C — recorded % Inhib @ 10 nM = 57%

The reported % Inhib @ 10 nM of the compound CCNCc1cncc(-c2ccc3[nH]nc(-c4ncc(C(=O)NCCc5c[nH]c6cc(OC)ccc56)[nH]4)c3c2)c1C was 45%

Lab note: measured % Inhib @ 10 nM of CCNCc1cncc(-c2ccc3[nH]nc(-c4ncc(C(=O)NCCn5cc(C(=O)NC(C)(C)C)nn5)[nH]4)c3c2)c1C was 27%

The compound identified as CCNCc1cncc(-c2ccc3[nH]nc(-c4ncc(C(=O)N5CCN(c6c(C)cccc6C)CC5)[nH]4)c3c2)c1C registered its % Inhib @ 10 nM at 67%
